biological target: MT-3 receptor (Mesocricetus auratus, UniProt A0ABM2YAB8); construct: from tissue; host or cells: hamster brain membranes; assay: 125I-melatonin binding in hamster brain membranes, MT-3; conditions: 10 μM; 0.1 nM 125I-melatonin; read-out: MT-3 receptor binding % inhibition by 10 μM
Sequence (A0ABM2YAB8 1-231): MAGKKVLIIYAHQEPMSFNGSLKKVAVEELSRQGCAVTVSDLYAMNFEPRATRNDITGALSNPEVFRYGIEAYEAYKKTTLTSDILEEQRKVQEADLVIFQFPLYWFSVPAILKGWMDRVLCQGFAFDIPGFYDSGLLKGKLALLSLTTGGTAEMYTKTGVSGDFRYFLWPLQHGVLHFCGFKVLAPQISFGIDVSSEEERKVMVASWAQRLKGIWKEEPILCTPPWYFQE
assay-readout: inhibition at 10 µM (%)
Your answer should be a plain number; it is taken to be in %.

// worked examples, inhibition at 10 µM included
COc1ccc2[nH]cc(CCNC(=O)c3ccc(=O)oc3)c2c1
95
COc1ccc2[nH]cc(CCNC(=O)c3cc(=O)cc(C(=O)O)o3)c2c1
86
COc1ccc2[nH]cc(CCNC(=O)c3cc(=O)cco3)c2c1
100

Alright, here's another compound for you.
Reported inhibition at 10 µM ( `COc1ccc2[nH]cc(CCNC(=O)c3cc(=O)c(OC)co3)c2c1` ) = 99
